molecular target: LgtC (Neisseria meningitidis) (UniProt Q93EK7); experiment: Inhibition of Neisseria meningitidis LgtC at 50 uM using UDP-Gal donor substrate incubated for 20 mins by malachite green reagent based colorimetric method relative to control
Activity calls are given as the source filed them. The calls are words filed in the database; no cut-off is given here.
Property Measured: inhibition

* CC1=NN(c2ccccc2)C(=O)/C1=C\c1ccco1 | inactive
* CC(=O)O[C@H]1C[C@@H]2CC[C@@H]3[C@H](CC[C@@]4(C)[C@H]3C[C@H]([N+]3(C)CCCCC3)[C@@H]4OC(C)=O)[C@@]2(C)C[C@@H]1[N+]1(C)CCCCC1 | 38%
* COc1cc(/C=C2\C(=O)N(c3cccc(C(=O)O)c3)N=C2C)cc(OC)c1O | inactive
* CC1=NN(c2ccccc2)C(=O)/C1=C\c1ccc(C#N)cc1 | inactive
* CC1=NN(c2ccccc2)C(=O)/C1=C\c1cccc(OCc2ccccc2)c1 | inactive
* CC1=NN(c2ccccc2)C(=O)/C1=C\c1ccc(O)cc1 | inactive

Form field: reported inhibition of CC1=NN(c2ccccc2)C(=O)/C1=C\c1cccc(O)c1
inactive

# repeat for CC1=NN(c2ccccc2)C(=O)/C1=C\c1cc(C(F)(F)F)ccc1C(F)(F)F
inactive

# repeat for CCOC(=O)c1cccc(N2N=C(C)/C(=C/c3ccncc3)C2=O)c1
inactive

# repeat for CC1=NN(c2ccccc2)C(=O)/C1=C\c1ccc(S(C)(=O)=O)cc1
inactive

# repeat for CC1=NN(c2ccccc2)C(=O)/C1=C\c1ccccc1Cl
> 10%

# repeat for CC1=NN(c2ccccc2)C(=O)/C1=C\c1cccc(C)c1
inactive

# repeat for CC1=NN(c2ccccc2)C(=O)/C1=C\c1ccncc1
inactive

----------
Protein target, amino acids: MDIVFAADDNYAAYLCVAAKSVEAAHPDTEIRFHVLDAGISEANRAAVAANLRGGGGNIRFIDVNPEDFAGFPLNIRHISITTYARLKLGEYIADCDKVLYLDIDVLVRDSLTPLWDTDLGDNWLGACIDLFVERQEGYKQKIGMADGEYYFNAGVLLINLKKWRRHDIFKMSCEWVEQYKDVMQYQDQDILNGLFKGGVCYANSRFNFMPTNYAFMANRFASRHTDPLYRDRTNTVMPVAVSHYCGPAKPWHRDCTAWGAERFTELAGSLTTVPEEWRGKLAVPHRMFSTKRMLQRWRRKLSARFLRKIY
Property Measured: IC50 (µM)

* CC1=NN(c2ccccc2)C(=O)/C1=C\c1ccccc1Cl | 33
* CC1=NN(c2ccccc2)C(=O)/C1=C\c1ccccc1C | 30

----------
target: LgtC (Neisseria meningitidis); assay: Inhibition of Neisseria meningitidis LgtC at 50 uM using UDP-Gal donor substrate incubated for 20 mins by malachite green reagent based colorimetric method relative to control
Activity calls are given as the source filed them. The calls are words filed in the database; no cut-off is given here.
Property Measured: inhibition

- CCOC(=O)c1cccc(N2N=C(C)/C(=C/C3CCN(C(=O)OC(C)(C)C)CC3)C2=O)c1: inactive
- CC(=O)O[C@H]1C[C@@H]2CC[C@@H]3[C@H](CC[C@@]4(C)[C@H]3C[C@H]([N+]3(C)CCCCC3)[C@@H]4OC(C)=O)[C@@]2(C)C[C@@H]1N1CCCCC1: 34%
- CC1=NN(c2ccccc2)C(=O)/C1=C\c1ccc(Cl)cc1: inactive
- CC1=NN(c2ccccc2)C(=O)/C1=C\c1ccccc1C: > 10%
- CC1=NN(c2ccccc2)C(=O)/C1=C\c1ccccc1O: 10%

Form field: reported inhibition of CC1=NN(c2ccccc2)C(=O)/C1=C\c1cccnc1
inactive

# repeat for CC1=NN(c2ccccc2)C(=O)/C1=C\c1ccc(C)cc1
inactive

# repeat for CC1=NN(c2ccccc2)C(=O)/C1=C\c1cccc([N+](=O)[O-])c1
inactive

# repeat for COc1ccc2occ(/C=C3\C(=O)N(c4cccc(C(=O)O)c4)N=C3C)c(=O)c2c1
inactive
